Could you please report measured inhibition for the items listed next?
# tgt: Histamine H3 receptor (Homo sapiens, UniProt Q9Y5N1)
# Sequence (Q9Y5N1 whole entry): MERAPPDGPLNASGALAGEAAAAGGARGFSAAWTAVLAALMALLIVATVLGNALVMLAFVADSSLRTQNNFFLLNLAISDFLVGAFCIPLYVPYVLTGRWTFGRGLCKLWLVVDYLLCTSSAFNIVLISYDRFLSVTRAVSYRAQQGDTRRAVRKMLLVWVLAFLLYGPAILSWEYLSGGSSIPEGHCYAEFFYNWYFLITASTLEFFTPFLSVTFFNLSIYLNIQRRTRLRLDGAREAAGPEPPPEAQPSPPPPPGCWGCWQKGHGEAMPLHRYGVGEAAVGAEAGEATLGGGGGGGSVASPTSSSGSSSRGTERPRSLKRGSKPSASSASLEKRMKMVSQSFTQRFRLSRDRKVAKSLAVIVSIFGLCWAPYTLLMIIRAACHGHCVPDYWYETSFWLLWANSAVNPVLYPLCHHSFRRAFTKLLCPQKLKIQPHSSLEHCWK
# assay_protocol: In vitro inhibitory activity against Histamine H3 receptor at a concentration of 1 ug/mL
Answers are plain numbers, in %.

Consider the following illustrative entries.
INSERT INTO results (compound, result_type, reported_result) VALUES
  ('OCCO/N=C1/c2ccccc2-c2ccc(OCCN3CCCCC3)cc21', 'inhibition', 24),
  ('CS(=O)(=O)NC1c2ccccc2-c2ccc(OCCN3CCCCC3)cc21 (stereo unspecified)', 'inhibition', 13),
  ('N#CCO/N=C1/c2ccccc2-c2ccc(OCCN3CCCCC3)cc21', 'inhibition', 24);

Go through the list and state inhibition for each entry.
1. CC(=O)OC1c2ccccc2-c2ccc(OCCN3CCCCC3)cc21 (stereo unspecified)
2. c1ccc2c(c1)Cc1cc(OCCN3CCCCC3)ccc1-2
3. CNC(=O)C1c2ccccc2-c2ccc(OCCN3CCCCC3)cc21 (stereo unspecified)

A:
[40, 20, 19]

Quick one: give me inhibition for each item below, same order please.
1. CNC(=O)/C=C1/c2ccccc2-c2ccc(OCCN3CCCCC3)cc21
2. CC(C)NC(=O)NC1c2ccccc2-c2ccc(OCCN3CCCCC3)cc21 (stereo unspecified)
3. COC(=O)/C=C1\c2ccccc2-c2ccc(OCCN3CCCCC3)cc21

A:
1. 20
2. 17
3. 20
